Read-out: Cytochrome P450 2C19 (Homo sapiens)
TEST_DETAILS: LTEA_HepaRG_CYP2C19: Life Technologies and Expression Analysis (LTEA) Assay for CYP2C19 using HepaRG (AID 2283482)
CONDITION_SET: mRNA level, 48 h; actives raise or lower the signal
Experimental: LTEA_HepaRG is a cell based, multiplexed-readout assay that uses HepaRG, a human liver cell line, with measurements taken at 48 hours after chemical dosing on a 96-well plate.LTEA_HepaRG_CYP2C19 is one of 102 assay component(s) measured in the LTEA HepaRG cell culture assay. It is a marker of NR mediated metabolism.Data from the assay component LTEA_HepaRG_CYP2C19 was analyzed into 1 endpoint. […]
Calls of active or inactive are those of the source. Rule for the calls: active = hit-call score of the fitted dose curve at least 0.9, where 1 is the maximum; inactive = score below 0.9.
Outcome codes: active, inactive

COMPOUND	ASSIGNED_CATEGORY
CCCOC(=O)c1ccc(C(=O)OCCC)nc1	inactive
CCCCC(CC)COC(=O)c1ccccc1C(=O)O (configuration not stated)	inactive
CC(=O)S[C@@H]1CC2=CC(=O)CC[C@]2(C)[C@H]2CC[C@@]3(C)[C@@H](CC[C@@]34CCC(=O)O4)[C@H]12	active
OB(O)O	inactive
CCN(Cc1c(F)cccc1Cl)c1c([N+](=O)[O-])cc(C(F)(F)F)cc1[N+](=O)[O-]	active
CCCCOCCOCCOCc1cc2c(cc1CCC)OCO2	active
O=C(c1ccccc1)C1CCCCC1	inactive
CCCCCOC(=O)COc1cc(N2C(=O)C3=C(CCCC3)C2=O)c(F)cc1Cl	inactive
CC(C)(C)[C@@H](O)[C@@H](Cc1ccc(Cl)cc1)n1cncn1	active
CC(=O)[C@H]1CC[C@H]2[C@@H]3CCC4=CC(=O)CC[C@]4(C)[C@H]3CC[C@]12C	active
N[C@@H](Cc1cc(I)c(Oc2ccc(O)c(I)c2)c(I)c1)C(=O)O	active
COc1c(Cl)ccc(Cl)c1C(=O)O	inactive
COC(=O)c1ccc(I)cc1S(=O)(=O)NC(=O)Nc1nc(C)nc(OC)n1	inactive
c1ccc(Nc2ccccc2)cc1	inactive
O=C(O)c1ccccc1	inactive
C#C[C@]1(O)CC[C@H]2[C@@H]3CCC4=CC(=O)CC[C@@H]4[C@H]3CC[C@@]21CC	active
Oc1ccc(C(c2ccc(O)cc2)C(Cl)(Cl)Cl)cc1	active
CC1(C)C(C=C(Cl)Cl)C1C(=O)OCc1cccc(Oc2ccccc2)c1 (configuration not stated)	inactive
CCCOC(=O)NCCCN(C)C	inactive
Cc1nn(C)c(Oc2ccccc2)c1C=NOCc1ccc(C(=O)OC(C)(C)C)cc1	active
CCCCOC(=O)[C@@H](C)Oc1ccc(Oc2ccc(C(F)(F)F)cn2)cc1	inactive
COC(=O)c1ccccc1C(=O)O	inactive

* * *

TEST_DETAILS: CEETOX_H295R_11DCORT: CeeTox H295R High-throughput Steroidogenesis Assay for 11-Deoxycortisol (11DCORT) (AID 2283432);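 for AC50: human adrenal H295R cells prestimulated with 10 µM forskolin for 48 h; 11-deoxycortisol secreted into the medium measured by LC-MS/MS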
CONDITION_SET: actives raise or lower the signal
Calls of active or inactive are those of the source. How the source made its calls: active means hit-call score of the fitted dose curve at least 0.9, where 1 is the maximum; inactive means score below 0.9.
READOUT_TYPE: AC50

COMPOUND	RESULT
C#CCOC(=O)[C@@H](C)Oc1ccc(Oc2ncc(Cl)cc2F)cc1	9.92 µM (active)
CCCCOC(=O)[C@@H](C)Oc1ccc(Oc2ccc(C(F)(F)F)cn2)cc1	inactive
CCCCCOC(=O)COc1cc(N2C(=O)C3=C(CCCC3)C2=O)c(F)cc1Cl	inactive
CC1(C)C(C=C(Cl)Cl)C1C(=O)OCc1cccc(Oc2ccccc2)c1 (centres undefined)	11.3 µM (active)

These measurements were taken from PubChem BioAssay (EPA / NIEHS).
